- STUDY_SYSTEM: human enzyme NAMPT (full length) (Homo sapiens)
- Construct: human enzyme NAMPT (full length)
- ASSAY_NOTES: NMN fluorescence biochemical assay (stimulation of NMN synthesis by NAMPT)
- APPLIED_CONDITIONS: fold change of maximal activation compared to DMSO
ASSAY_READOUT: Enzymatic Emax

>>> assay_value("C/C(=C\\CN1C(=O)c2ccccc2C1Cc1ncccc1Br)c1c[nH]nn1 (stereo not drawn)")
"B (3≥B>2)"
>>> assay_value("Cn1ncc(Cl)c1CC1c2scnc2C(=O)N1Cc1ccc(O)cc1 (stereo not drawn)")
"B (3≥B>2)"

====

Would you kindly list EC50 for each of these compounds?
- STUDY_SYSTEM: human enzyme NAMPT (full length) (Homo sapiens)
- Construct: human enzyme NAMPT (full length)
- ASSAY_NOTES: NMN fluorescence biochemical assay (stimulation of NMN synthesis by NAMPT)
- APPLIED_CONDITIONS: NMN fluorescence assay, purified human NAMPT 100 nM; concentration giving half-maximal activation; read-out: Enzymatic EC50

Input: Please look at this compound and report its EC50: CCn1ncc(Cl)c1CC1c2ccccc2C(=O)N1CC1CC2(CNC(=O)O2)C1 (centres unmarked) [Compound 465]
Output: 500 to 5000 nM

Input: For the compound Cn1c(=O)oc2cc(CN3C(=O)c4ccccc4C3Cc3c(Br)cccc3C#N)ccc21 (centres unmarked) [Compound 552] , give its measured EC50 value.
Output: < 500 nM

Input: Determine from records and report EC50 for Cn1nc(F)c(Cl)c1CC1c2ccccc2C(=O)N1CC1CC2(CNC(=O)O2)C1 (centres unmarked) [Compound 547]
Output: 500 to 5000 nM

Input: Supply reported EC50 belonging to this compound: COc1ccc(CN2C(Cc3c(Cl)cnn3C)c3ccccc3S2(=O)=O)cc1 (centres unmarked) [Compound 641]
Output: ≥ 5000 nM

Input: Identify the reported EC50 for the following entry. NC(=O)C1CC(CN2C(=O)c3ccccc3C2Cc2ncccc2Br)C1 (centres unmarked) [Compound 404]
Output: < 500 nM

Input: Kindly indicate its recorded EC50. Item: COc1ccc(CN2C(=O)c3ccccc3C2Cc2c(Cl)ccc(=O)n2C)cn1 (centres unmarked) [Compound 609]
Output: 500 to 5000 nM

Input: For the compound Cn1ncc(Cl)c1CC1c2cc(C#N)ccc2C(=O)N1Cc1ccc2[nH]nnc2c1 (centres unmarked) [Compound 327] , give its measured EC50 value.
Output: 500 to 5000 nM

Input: Return EC50 for the following compound: Cn1nc(OC(F)F)c(Cl)c1CC1c2ccccc2C(=O)N1Cc1ccc2[nH]nnc2c1 (centres unmarked) [Compound 397]
Output: < 500 nM

Input: In one line, give reported EC50 of the entry COC1CC2(CC(CN3C(=O)c4ccccc4C3Cc3c(Cl)cnn3C)C2)C1 (centres unmarked) [Compound 599] .
Output: ≥ 5000 nM

Input: Check the records and state EC50 for O=C1c2ccccc2C(Cc2ncccc2Br)N1Cc1ccc2[nH]c(=O)ncc2c1 (centres unmarked) [Compound 348]
Output: 500 to 5000 nM

Input: Note EC50 for the compound shown: Cn1ncc(Cl)c1CC1c2cc(CC3COC3)ccc2C(=O)N1Cc1ccc2[nH]nnc2c1 (centres unmarked) [Compound 394]
Output: < 500 nM

Input: // fetch EC50 given entry Cn1ncc(Cl)c1CC1c2cc(Cl)ccc2C(=O)N1CC1CC2(CNC(=O)O2)C1 (centres unmarked) [Compound 474]
Output: 500 to 5000 nM

Input: Return value of EC50 for input Cc1cccc2c1C(Cc1c(Cl)cnn1C)N(CC1CC3(CNC(=O)O3)C1)C2=O (centres unmarked) [Compound 470] , no commentary.
Output: ≥ 5000 nM

Input: # return recorded EC50 for input COc1ncc(CN2C(=O)c3ccccc3C2Cc2c(Cl)cnn2C)s1 (centres unmarked) [Compound 591]
Output: ≥ 5000 nM

Input: Provide one value: measured EC50 of Cn1ncc(Cl)c1CC1c2ccccc2C(=O)N1Cc1ccc2[nH]c(=S)oc2c1 (centres unmarked) [Compound 626]
Output: ≥ 5000 nM

Input: Output measured EC50 for this item: Cc1onc(C#N)c1C(O)C1c2ccccc2C(=O)N1Cc1ccc2[nH]nnc2c1 (centres unmarked) [Compound 374]
Output: 500 to 5000 nM

Input: In one line, give reported EC50 of the entry Cn1ncc(Cl)c1CC1c2cc(Br)ccc2C(=O)N1Cc1ccc2[nH]c(=O)oc2c1 (centres unmarked) [Compound 431] .
Output: < 500 nM

Input: Give a short answer stating reported EC50 for Cn1ncc(Cl)c1CC1c2ccccc2S(=O)(=O)N1CC1CC2(CNC(=O)O2)C1 (centres unmarked) [Compound 540] .
Output: < 500 nM

Input: Write down EC50 measured for item O=C1c2ccccc2C(Cc2ncccc2Br)N1CCNc1c[nH]nn1 (centres unmarked) [Compound 456]
Output: ≥ 5000 nM

Input: Read the entry Cc1c(CN2C(=O)c3ccccc3C2Cc2ncccc2Br)ccc2[nH]c(=O)oc12 (centres unmarked) [Compound 349] and write its reported EC50.
Output: 500 to 5000 nM

Input: Return value of EC50 for input Cc1ccnc(C#N)c1CC1c2ccccc2C(=O)N1C/C=C/c1c[nH]nn1 (centres unmarked) [Compound 409] , no commentary.
Output: < 500 nM

Input: Identify measured EC50 corresponding to Cn1ncc(Cl)c1CC1c2ccccc2C(=O)N1Cc1cnc(N)s1 (centres unmarked) [Compound 628]
Output: ≥ 5000 nM

Input: Please supply the value of reported EC50 for the item N#Cc1cncc(C#N)c1CC1c2ccccc2C(=O)N1Cc1ccc2[nH]nnc2c1 (centres unmarked) [Compound 351]
Output: < 500 nM

====

- STUDY_SYSTEM: human enzyme NAMPT (full length) (Homo sapiens, UniProt P43490)
- Construct: human enzyme NAMPT (full length)
- Sequence (P43490 whole entry): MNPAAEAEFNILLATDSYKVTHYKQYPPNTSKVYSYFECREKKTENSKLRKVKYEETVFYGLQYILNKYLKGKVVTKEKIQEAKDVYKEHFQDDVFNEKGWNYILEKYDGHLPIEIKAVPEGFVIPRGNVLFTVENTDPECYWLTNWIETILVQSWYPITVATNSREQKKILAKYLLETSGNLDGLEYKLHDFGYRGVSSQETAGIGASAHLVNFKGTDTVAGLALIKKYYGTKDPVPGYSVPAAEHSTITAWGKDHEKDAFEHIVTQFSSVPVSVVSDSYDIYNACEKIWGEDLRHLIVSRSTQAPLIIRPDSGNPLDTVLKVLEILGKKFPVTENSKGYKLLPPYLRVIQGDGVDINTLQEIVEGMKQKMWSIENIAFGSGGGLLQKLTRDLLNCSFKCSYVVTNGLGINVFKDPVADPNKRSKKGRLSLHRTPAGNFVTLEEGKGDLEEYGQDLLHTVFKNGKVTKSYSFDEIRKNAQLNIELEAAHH
- ASSAY_NOTES: NMN fluorescence biochemical assay (stimulation of NMN synthesis by NAMPT)
- APPLIED_CONDITIONS: NMN fluorescence assay, purified human NAMPT 100 nM; concentration giving half-maximal activation; read-out: Enzymatic EC50
- Experimental: Certain compounds described herein were assayed for their ability to stimulate the synthesis of nicotinamide mononucleotide (NMN) by human enzyme NAMPT (full length). […] Fluorescence (Ex/Em=382/445 nm) was measured using an Envision plate reader. The potency measurements for the test compounds were quantified and represented as EC50 (concentration of a compound that gives half-maximal activation) and Emax (fold change of a compound's maximal activation compared to DMSO).
Please go through the items and note down their EC50.

Input: Give the value of EC50 reported for the following: Cn1nc(CN2CCOCC2)c(Cl)c1CC1c2ccccc2C(=O)N1CC1CC2(CNC(=O)O2)C1 (stereo not shown)
Output: 500 to 5000 nM

Input: Specify EC50 for N#CCn1cc(Cl)c(CC2c3ccccc3C(=O)N2Cc2ccc3[nH]nnc3c2)n1 (stereo not shown) and stop.
Output: < 500 nM

Input: Could you please provide reported EC50 for COc1ccc(CN2C(=O)c3ccc(C4CC4)cc3C2Cc2c(C)ncnc2C#N)cc1 (stereo not shown) ? Thanks!
Output: 500 to 5000 nM

Input: # return recorded EC50 for input Cn1ncc(Cl)c1CC1c2cc(Br)ccc2C(=O)N1CC1CC2(CNC(=O)O2)C1 (stereo not shown)
Output: 500 to 5000 nM

Input: Item Cc1[nH]nnc1/C=C/CN1C(=O)c2ccccc2C1Cc1ncccc1Br (stereo not shown) : provide EC50
Output: 500 to 5000 nM

Input: // Input: Cn1ncc(Cl)c1CC1c2cc(C3CCOCC3)ccc2C(=O)N1Cc1ccc2[nH]nnc2c1 (stereo not shown) . Output its EC50 only.
Output: < 500 nM

Input: Kindly indicate its recorded EC50. Item: Cn1ncc(Cl)c1CC1c2ccccc2C(=O)N1CC#Cc1cn[nH]c1 (stereo not shown)
Output: < 500 nM

Input: Please report EC50 for the following compound: Cn1c(CC2c3ccccc3C(=O)N2Cc2ccc3[nH]nnc3c2)c(Cl)ccc1=O (stereo not shown)
Output: < 500 nM

Input: Read off the recorded EC50 for COC(C)(C)c1ccc2c(c1)C(Cc1c(Cl)cnn1C)N(Cc1ccc3[nH]nnc3c1)C2=O (stereo not shown)
Output: 500 to 5000 nM

Input: Determine from records and report EC50 for Cn1ncc(Cl)c1CC1c2ccccc2C(=O)N1Cc1c[nH]c(=S)s1 (stereo not shown)
Output: ≥ 5000 nM

====

- Tested on: endogenous NAMPT in U2OS cells
- ASSAY_NOTES: Cellular NAD+ modulation assay (NAD/NADH-Glo, U2OS cells)
- Format: cell-based
- APPLIED_CONDITIONS: Homo sapiens, 24 hours incubation, cellular NAD+
pEC50: −log10 of the molar value.
Can you tell me pEC50 for the items I'm about to list?

Input: Report pEC50 for Cn1ncc(Cl)c1CC1c2cccc(F)c2C(=O)N1Cc1ccc2[nH]nnc2c1 (stereo not shown)
Output: > 6.30

Input: Entry Cn1ncc(Cl)c1CC1c2c(F)cccc2C(=O)N1Cc1ccc2[nH]nnc2c1 (stereo not shown) needs its pEC50 filled in; supply it.
Output: > 6.30

Input: Tell me pEC50 reported for CC1NC(=O)OC12CC(CN1C(=O)c3ccccc3C1Cc1ncccc1Br)C2 (stereo not shown)
Output: 5.30 to 6.30

Input: Give pEC50 for Cn1ncc(Cl)c1CC1c2ccccc2S(=O)(=O)N1CC1CC2(CNC(=O)O2)C1 (stereo not shown)
Output: > 6.30
